assay-remarks: yeast display, Sf9 membrane polyspecificity reagent, FACS + sequencing; frameworks hold sequencing errors
parameter: polyreactivity (PSR sort gate)

[
  {
    "residue-string": "QVQLVESGGGLVQAGGSLRLSCAASGFTFFTYAMGWYRQAPGKDRQLVAAITTGGSTNYADSVKGRFTISRDNAKINVYLEMNSLKPEDTAVYYCAAQRVSVLLFVRHDYWGQGTQVTVSS",
    "observed-measurement": "low polyreactivity"
  },
  {
    "residue-string": "QVQLVESGGGLVQAGGSLRLSCAASGAIFQPYGMGGYSQAPGKERELVAAISRGGTTYYADSVTGRFTISRANAKNTDYLQMNSLKPEETAVYYCAVKGYRYGTRYDYRGQGTQVTVSS",
    "observed-measurement": "high polyreactivity"
  },
  {
    "residue-string": "QVQLVESGGRLVQAGGSLRLSCAASGSTSTLYAMGWYRQAPGKERELVAAISKSGGRTYYADSVKGRFTISRDNAKNTVYLQMNSLKPEDTAVYYCNTVPGRYRTFDYWGQGTQVTVSS",
    "observed-measurement": "high polyreactivity"
  },
  {
    "residue-string": "QVQLVESGGGLVQAGGSLRLSCAASGSIFGRNAMGWYRQAPGKERELVAAINSGGSTNYADSVKGRFTISRDNAKNTVYLQMNSLKPEDTAVYYCAARTYSSGRYYGYVAFYYWGQGTQVTVSS",
    "observed-measurement": "high polyreactivity"
  },
  {
    "residue-string": "QVQLLESGGGLDQARGSLRLSCAASGITFEYNAMGWYRQAPGKERELVAAISLSSGSTYYADSVKGRFTISRDNAKNTVYLQMNSLKPEDTAVYYGNADTIIYEGGYWGQGTQVTVSS",
    "observed-measurement": "low polyreactivity"
  },
  {
    "residue-string": "QVQLVESGGGLVPAGGSLRLSCAASGLTFTTYAMGWYRQAPGKERELVAANSNSGATTYYADSVKGRFTISRDNAKNTVYLQMNSLKREETAVYYCAATSYTATWRYYYWGQGTQVTVSS",
    "observed-measurement": "high polyreactivity"
  },
  {
    "residue-string": "QVQLVESGGGLVQAGGSLRLSCAASGSIFYYNAMGWYRQAPGKERELVATIRTSGGSTYYADSVKGRFTISRDNAKNTVYLQMNSLKPEDTAVYYCAARDLRKLYSRYPYYYWGQGTQVTVSS",
    "observed-measurement": "high polyreactivity"
  },
  {
    "residue-string": "QVQLVESGGGLVQAGGSLRLTCAASGITFYYYAMGWYRQAPAKERELVAAISFRGGSTYYADSVKARFTISRDNPKNTFYLQMNSLNPEDTAVYYCASVTSPSWYTWVTYDYWGQGTQVTVSS",
    "observed-measurement": "high polyreactivity"
  },
  {
    "residue-string": "QVQLLESGGGLVQAGGSLRLSCAASGRIFTPYAMGWYRQAPGKERELVAVIRDGSTYYADSVKGRFTISRDNAKNTVYLQMNSLKPEDTAVYYCAADVGYSPYFFGGTRYYKYDYWGQGTQVTVSS",
    "observed-measurement": "low polyreactivity"
  },
  {
    "residue-string": "QVQLVESGGALVQAGGSLRLSCAASGRIFRKNAMGWYRQAPGKERELGAAISGGGGSTYYAVSVKGRFTISRDNAKNTVYLQMNSLQPEDTAVYYCNAPILPGYWGQGTQVTVSS",
    "observed-measurement": "high polyreactivity"
  },
  {
    "residue-string": "QVQLVESGGGLVQAGGSLRLSCAASGFTFPGYAMGWYRQAPGKERELVAAISSSGGSTYYADSVKGRFTISRDNAKNTVYLQMNSLKPEDTAVYYCAARHGQSWQWLEYDYWGQGTQVTVSS",
    "observed-measurement": "low polyreactivity"
  },
  {
    "residue-string": "QVQLVESAGGIVQAGGSLRLSCAASESIFETYDMGCYRQAPGTERELVAAITLSGGSTYYADSVKGRFTISRDNAKNTVYLQMNSLKPEDTAVYYCAADDSGVKVWEGDYWGQGTQVTVSS",
    "observed-measurement": "low polyreactivity"
  },
  {
    "residue-string": "QVQLVESGGGLVQAGGSLRLSCAASGFIYTYAMGSYRQAPGKERELVAAIRWIGTRTYYADSVKGRFTISRDNAKNTVYLQMNSLKPEDTADYYCAARYYTYDGYSKYDYWGQGTQVNVSS",
    "observed-measurement": "high polyreactivity"
  },
  {
    "residue-string": "QVQLVESGGGLVQAGGSLRLSCAASGSTFNIYVMGWYRQAPGKERELVAAITTSGRTYYADSVKGRFTISRDNAKNTVYLQMNSLKPEDTAVYYCAAVPVRYRYSYGYYYWGQGTQVTVSS",
    "observed-measurement": "high polyreactivity"
  },
  {
    "residue-string": "QDQHVESGGGLVQAGGSLRLICAASGINFDYYNMGWYRQAPGKERELVATISSGGTSTFYADSVKGRFTISRDNAKNTVYLQMNSLKPDDSAVYYCAKDRPGWVHRRPSGGFDYWGQGTQVTVSS",
    "observed-measurement": "low polyreactivity"
  },
  {
    "residue-string": "QVQLVESGGGLVQAGGSLRLICAASGSTFAGNTMGWYRQAPGKERELVATITSDGSTDYADSVKGRFTISRDNAKNTVYYQMNSLKAEDPAVYYCAKARGLSKMDSWGQGTQVTVSS",
    "observed-measurement": "low polyreactivity"
  },
  {
    "residue-string": "QVQLVESGGGLVQAGGSLRLSCAASGFIFYRNTMGWYRQAPGKERELVATISRRGGSTYYADSVKGRFTISRDNAKHTVYLQMNSLKPEDTAVYYCNADQEYSRPRYGMDYWGQGTQVTVSS",
    "observed-measurement": "high polyreactivity"
  },
  {
    "residue-string": "QVQLVESGGGLVQAGGSLRLSCDASGLTIYGYAIGSYRQAPGKERELVAAITSGDSTYYADSVKGRFTISRDTAKNTVYFQMNSLKPDDTAVYYCAAVGGYPRYGYWGQGTQVTVSS",
    "observed-measurement": "high polyreactivity"
  },
  {
    "residue-string": "QVQLVESGGGLVQAGGSLRLSCAASGRTFSYYAMGWYRQAPGKERELVAVITSSGGSTSYADSVKGRFTISRDNAKNTVYLQMNSLKPEDTAVYYCAADPLAVSWAYYLFGVDYWGQGTQVTVSS",
    "observed-measurement": "high polyreactivity"
  },
  {
    "residue-string": "QVQLVESGGGLVQAGGSLSLSCAASGRIFYKYAMGWYRQAPGKESELVAAINTSGGRTYYADSVKGRFTISRDNAKNTVYLQMNSLKPEDTAVYYCKAVGSAYTAYDYWGQGTQVTVSS",
    "observed-measurement": "high polyreactivity"
  },
  {
    "residue-string": "QVQLVESGGGLVQAGGSLRLSCAASGFIFSYYAMGWYRQAPGKERELVAAISRNGGRTYYADSVKGRFTISRDNAKNTVYLQMNSLKPEDTAVYYCATGKIREDDYWGQGTQVTVSS",
    "observed-measurement": "high polyreactivity"
  }
]

###

assay-remarks: yeast display, Sf9 membrane polyspecificity reagent, FACS + sequencing; frameworks hold sequencing errors
parameter: polyreactivity (PSR sort gate)

[
  {
    "residue-string": "QVQLVESGGGLVQAGGSLRLSCAASGFIFGYNAMGWYRQAPGKERELVAAISGSGGRTYYADSVKGRFTISRDNAKNTVYLQMNSLIPEDTAVYYCAVADRRGLGYWGQGTQVTVSS",
    "parameter": "polyreactivity (PSR sort gate)",
    "observed-measurement": "high polyreactivity"
  },
  {
    "residue-string": "QVQLVESGGGLVQAGGSLRLSCAASGSTFSWYAMGWYRQAPGKERELVAAISYSGGTYYADSVKGRFTISRDNAKNTVYLQMNSLKPEDTAVYYCAALRTRYGYDYWGQGTQVTVSS",
    "parameter": "polyreactivity (PSR sort gate)",
    "observed-measurement": "high polyreactivity"
  },
  {
    "residue-string": "QVQLVESGGGLVQAGGSLRLSCAASGSIFVSYAMGWYRQAPGKERELVAAITSAGTTYYADSVKGRFTISRDNAKNTVYLQMNSLKPEDTAVYYCNADTYGYYLWTGAVSAGDDYWGQGTQVTVSS",
    "parameter": "polyreactivity (PSR sort gate)",
    "observed-measurement": "low polyreactivity"
  },
  {
    "residue-string": "QVQLVESGGGLVQAGGSLRLICAASGFTFAGYAMGWYRQARGKDRELVAGIRSSGARTYYADSVKGRFTISRDNAKNTVYIQMNSLKPEDTAVYYCAKTDGFYRGYGYWGQGTQVTVSS",
    "parameter": "polyreactivity (PSR sort gate)",
    "observed-measurement": "low polyreactivity"
  },
  {
    "residue-string": "QVQLVESGGGLVQAGGSLRLSCAASGRTFVYNAMGWYRQAAGKEWELVAAISSDGASTYYADSVKGRFTISRDNAKNTAYLQMNSLKPEDTAVYYCAADFSYYSYEHYYWGQGTQVTVSS",
    "parameter": "polyreactivity (PSR sort gate)",
    "observed-measurement": "low polyreactivity"
  }
]
